// reported IC50 for each item listed
target: UniProtKB P56817; experiment: In vitro enzymatic BACE FRET (fluorescence resonance energy transfer) assay; type: biochemical; settings: BACE enzyme FRET assay; read-out: BACE1 FRET assay (IC50);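 also: fluorescence read after 1 h with 50 nM quenched peptide substrate spanning the BACE cleavage site, in pH 4.2 acetate buffer containing 10% DMSO and nonionic detergent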
Sequence (P56817 46-501): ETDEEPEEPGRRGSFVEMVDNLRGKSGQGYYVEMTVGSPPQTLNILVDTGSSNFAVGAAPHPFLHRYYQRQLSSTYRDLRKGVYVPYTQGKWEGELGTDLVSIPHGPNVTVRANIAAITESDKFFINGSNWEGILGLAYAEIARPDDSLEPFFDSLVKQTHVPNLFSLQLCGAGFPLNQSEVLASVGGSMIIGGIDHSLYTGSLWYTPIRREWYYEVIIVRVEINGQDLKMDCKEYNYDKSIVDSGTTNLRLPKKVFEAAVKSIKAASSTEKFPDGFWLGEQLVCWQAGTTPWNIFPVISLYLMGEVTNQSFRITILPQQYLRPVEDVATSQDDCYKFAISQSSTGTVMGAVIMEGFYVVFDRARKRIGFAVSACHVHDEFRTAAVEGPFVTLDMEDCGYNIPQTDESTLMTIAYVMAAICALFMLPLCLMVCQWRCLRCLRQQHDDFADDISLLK

[
  {
    "COMPOUND": "COC(C)C(=O)NC(Cc1ccc2c(c1)OCO2)C(O)CNC1CC2(CC(O)C2)Oc2ccc(CC(C)(C)C)cc21 (stereo not drawn) [compound 269]",
    "READOUT_UNITS": "nM",
    "IC50": 242
  },
  {
    "COMPOUND": "COCC(=O)N[C@@H](Cc1cccc(F)c1)[C@H](O)CN[C@H]1CC2(CCC2)Oc2ncc(CC(C)(C)C(F)F)cc21",
    "READOUT_UNITS": "nM",
    "IC50": 4.38
  },
  {
    "COMPOUND": "CO[C@H](C)C(=O)N[C@@H](Cc1ccc2c(c1)OCO2)[C@H](O)CN[C@H]1CC2(CCC2)Oc2ncc(CC(C)(F)F)cc21",
    "READOUT_UNITS": "nM",
    "IC50": 126
  },
  {
    "COMPOUND": "COC(C)C(=O)NC(Cc1ccc2c(c1)OCO2)C(O)CNC1CC2(CC(O)C2)Oc2cnccc21 (stereo not drawn) [compound 243]",
    "READOUT_UNITS": "nM",
    "IC50": 36100
  },
  {
    "COMPOUND": "CC(=O)N[C@@H](Cc1ccc2c(c1)OCO2)[C@H](O)CN[C@H]1CC2(CCC2)Oc2ncc(CC3(C(F)(F)F)CC3)cc21",
    "READOUT_UNITS": "nM",
    "IC50": 61.7
  },
  {
    "COMPOUND": "CC(=O)N[C@@H](Cc1ccc(F)c(Cl)c1)[C@H](O)CN[C@H]1CC2(CCC2)Oc2ncc(CC(C)(C)C(F)F)cc21",
    "READOUT_UNITS": "nM",
    "IC50": 7.05
  }
]

###

biological target: CYP2D6 (Homo sapiens, UniProt P10635); test: CYP2D6 inhibition assay (bufuralol, pooled human liver microsomes); settings: 2D6 IC50 (uM), CYP enzyme inhibition
Sequence (P10635 whole entry): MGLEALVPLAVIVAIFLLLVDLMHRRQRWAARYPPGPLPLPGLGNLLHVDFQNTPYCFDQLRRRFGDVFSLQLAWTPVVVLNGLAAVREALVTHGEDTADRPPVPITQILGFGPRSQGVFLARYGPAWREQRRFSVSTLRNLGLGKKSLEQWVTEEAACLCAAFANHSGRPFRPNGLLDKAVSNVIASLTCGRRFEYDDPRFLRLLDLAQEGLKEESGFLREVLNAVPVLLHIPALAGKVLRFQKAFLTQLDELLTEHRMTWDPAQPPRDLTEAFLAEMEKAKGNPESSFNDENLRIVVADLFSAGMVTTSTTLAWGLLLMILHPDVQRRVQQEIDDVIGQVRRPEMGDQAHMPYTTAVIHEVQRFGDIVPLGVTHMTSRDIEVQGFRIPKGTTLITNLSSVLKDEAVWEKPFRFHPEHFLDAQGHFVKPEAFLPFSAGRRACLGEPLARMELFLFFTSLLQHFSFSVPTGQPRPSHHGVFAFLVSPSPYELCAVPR
Note to self: IC50 under 0.7 µM means 1 (yes), ties and anything higher get 0 (no).

[
  {
    "LINE_NOTATION": "COC(OC)C(=O)N[C@@H](Cc1cccc(-c2ncco2)c1)[C@H](O)CN[C@H]1CC2(CCC2)Oc2ncc(CC(C)(C)C)cc21",
    "ASSIGNED_CATEGORY": "0 (no)"
  },
  {
    "LINE_NOTATION": "CC(C)(C)CCC(=O)N[C@@H](Cc1ccccc1)[C@H](O)CN[C@H]1CC2(CCC2)Oc2ncc(CC(C)(C)C)cc21",
    "ASSIGNED_CATEGORY": "0 (no)"
  },
  {
    "LINE_NOTATION": "CC(=S)N[C@@H](Cc1cccc(-c2nccs2)c1)[C@H](O)CN[C@H]1CC2(CCC2)Oc2ncc(CC(C)(C)C)cc21",
    "ASSIGNED_CATEGORY": "1 (yes)"
  },
  {
    "LINE_NOTATION": "COCC(=O)N[C@@H](Cc1cccc(F)c1)[C@H](O)CN[C@H]1CC2(CCC2)Oc2c(-c3ccncc3)cc(Cl)cc21",
    "ASSIGNED_CATEGORY": "1 (yes)"
  }
]
